- System: MAP3K3
- condition.notes: concentration: 1 μM, replicates: in singlicate; n = 1;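 note: KINOMEscan kinase panel screen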
measured.parameter: %Inh (%)
Respond with the bare value in %.

The value of %Inh measured for the compound Cc1nnc(-c2ccc(C)c(-c3ccc(C(=O)Nc4ccc(NS(C)(=O)=O)cc4)cc3)c2)o1 turned out to be 0

The value of %Inh measured for the compound O=C(NCCNc1ccnc(Nc2ccc(F)cc2)n1)c1cc2ccccc2s1 turned out to be 0

The value of %Inh measured for the compound O=c1cc(N2CCOCC2)nc2n(Cc3cccc(Cl)c3Cl)c(C3CC3)nn12 turned out to be 0

The value of %Inh measured for the compound Nc1nc(-c2ccc3c(N)n[nH]c3c2)cc(N2CCCC2)n1 turned out to be 0

The value of %Inh measured for the compound Cc1c(Cn2c(C)nn3c(=O)cc(N4CCOC(C)C4)nc23)cccc1C(F)(F)F (stereo not drawn) turned out to be 0

The value of %Inh measured for the compound Cc1cn2c(=O)cc(N3CCOCC3)nc2n1Cc1cccc(Cl)c1Cl turned out to be 0

The value of %Inh measured for the compound Cn1cc(-c2ccc3c(c2)CCN3C(=O)Cc2ccccc2Cl)c2c(N)ncnc21 turned out to be 82

The value of %Inh measured for the compound COc1ccc(S(=O)(=O)NC2CCN(c3cc(C)nc(Nc4cccc(C#N)c4)n3)CC2)cc1.O=C(O)C(F)(F)F turned out to be 0

The value of %Inh measured for the compound [2H]C([2H])(c1cccc(C(F)(F)F)c1C)n1ccn2c(=O)nc(N3CCOCC3)cc12 turned out to be 0

The value of %Inh measured for the compound Cc1ccc(NC(=O)c2ccnc(N3CCN(C)CC3)c2)cc1-c1ccc(C(=O)NCC2CC2)cc1 turned out to be 0

The value of %Inh measured for the compound Cc1cccc(-c2nc(-c3ccc(S(C)(=O)=O)cc3)sc2-c2ccncc2)c1 turned out to be 9

The value of %Inh measured for the compound CNc1ncnc2[nH]ncc12 turned out to be 0

The value of %Inh measured for the compound Cc1nnc(-c2ccc3ncc(-c4ccc(S(C)=O)cc4)n3c2)o1 (stereo not drawn) turned out to be 5

The value of %Inh measured for the compound COc1ccc(Nc2nccc(N3CCC(NC(=O)Nc4cc(C)ccc4C)C3)n2)cc1 (stereo not drawn) turned out to be 0

The value of %Inh measured for the compound CCn1cnc2c(N)ncnc21 turned out to be 20

The value of %Inh measured for the compound CC(=O)Nc1ccc(COc2ccc(Nc3ccnc4cc(-c5ccccn5)ccc34)cc2)cc1.Cl turned out to be 0

The value of %Inh measured for the compound Nc1nccc(-c2c(-c3ccc(F)cc3)ncn2C2CCN(CC(F)(F)F)CC2)n1 turned out to be 0

The value of %Inh measured for the compound Fc1ccc(-c2ncn(CCCN3CCOCC3)c2-c2ccccn2)cc1 turned out to be 0

###

I'd appreciate it if you could supply %Inh values for the items below.
- System: SRPK2
- condition.notes: concentration: 1 μM, replicates: in singlicate; n = 1
Respond with the bare value in %.

Entry O=c1cc(N2CCOCC2)nc2n(Cc3cccc(Cl)c3Cl)c(C3CC3)nn12 ; assay system SRPK2; %Inh recorded at 0

Entry O=C1Cc2cc(Nc3nc(NCc4cccc(S(=O)(=O)C(F)(F)F)c4)ncc3C(F)(F)F)ccc2N1 ; assay system SRPK2; %Inh recorded at 6

Entry COc1ccc(Nc2nccc(N3CCC(NC(=O)Nc4cc(C)ccc4C)C3)n2)cc1 (stereo not drawn) ; assay system SRPK2; %Inh recorded at 0

Entry O=C(NCCCN1CCOCC1)c1cccc(Nc2nccc(Nc3ccc(Oc4ccccc4)cc3)n2)c1 ; assay system SRPK2; %Inh recorded at 19

Entry Nc1nccc(-c2c(-c3ccc(F)cc3)ncn2C2CCN(CC(F)(F)F)CC2)n1 ; assay system SRPK2; %Inh recorded at 41

Entry Cc1c2ccc(N(C)c3ccnc(Nc4cccc(S(N)(=O)=O)c4)n3)cc2nn1Cc1ccccc1.Cl.Cl ; assay system SRPK2; %Inh recorded at 0

Entry Cc1cccc(-c2nc(-c3ccc(S(C)(=O)=O)cc3)sc2-c2ccncc2)c1 ; assay system SRPK2; %Inh recorded at 0

Entry CNc1ncnc2[nH]ncc12 ; assay system SRPK2; %Inh recorded at 0

Entry N#Cc1ccc(-c2cc(-c3c[nH]nc3-c3ccccn3)ccn2)cc1 ; assay system SRPK2; %Inh recorded at 0

Entry [2H]C([2H])(c1cccc(C(F)(F)F)c1C)n1ccn2c(=O)nc(N3CCOCC3)cc12 ; assay system SRPK2; %Inh recorded at 0

Entry c1ccc(-c2cc(-c3c[nH]nc3-c3ccccn3)ccn2)cc1 ; assay system SRPK2; %Inh recorded at 9

Entry Cc1cccc(Cn2ccn3c(=O)cc(N4CCOCC4)nc23)c1 ; assay system SRPK2; %Inh recorded at 0

Entry Cc1cccc(-c2nc(Nc3ccc4ncsc4c3)c3ccccc3n2)n1 ; assay system SRPK2; %Inh recorded at 0

Entry O=C(NOCC1CC1)c1ccc(F)c(F)c1Nc1ccc(I)cc1Cl ; assay system SRPK2; %Inh recorded at 0

Entry Fc1ccc(-c2nn3c(OCC(F)(F)F)cccc3c2-c2ccncc2)cc1 ; assay system SRPK2; %Inh recorded at 0

Entry C[C@@H](Oc1cc(-n2cnc3ccc(NC(=O)NC(C)(C)C)cc32)sc1C(N)=O)c1ccccc1Cl ; assay system SRPK2; %Inh recorded at 12

Entry Cc1ccc(NC(=O)c2ccnc(N3CCN(C)CC3)c2)cc1-c1ccc(C(=O)NCC2CC2)cc1 ; assay system SRPK2; %Inh recorded at 0

Entry CN(C(=O)c1ccc(-c2cc(-c3c[nH]nc3-c3ccccn3)ccn2)cc1)C1CCOCC1 ; assay system SRPK2; %Inh recorded at 14

###

- Tested on: RAF1
- condition.notes: concentration: 1 μM, replicates: in singlicate; n = 1
I'd appreciate it if you could supply %Inh values for the items below.
Respond with the bare value in %.

The value of %Inh measured for the compound Cc1cccc(-c2nc(Nc3ccc4ncsc4c3)c3ccccc3n2)n1 turned out to be 0

The value of %Inh measured for the compound COc1ccc(COc2cc(-n3cnc4ccccc43)sc2C(N)=O)cc1 turned out to be 4

The value of %Inh measured for the compound O=c1cc(N2CCOCC2)nc2n(Cc3cccc(Cl)c3Cl)c(C3CC3)nn12 turned out to be 0

The value of %Inh measured for the compound Cl.Nc1ncnc2occ(-c3ccc(NC(=O)Nc4cc(C(F)(F)F)ccc4F)cc3)c12 turned out to be 78

The value of %Inh measured for the compound Cc1cccc(Cn2ccn3c(=O)cc(N4CCOCC4)nc23)c1 turned out to be 7

###

- Tested on: IRAK1
- condition.notes: concentration: 1 μM, replicates: in singlicate; n = 1
Classes by %Inh: Low (below 1%), Mid (1% to below 20%), High (20% or more)

Which class does Cc1c2ccc(N(C)c3ccnc(Nc4cccc(S(N)(=O)=O)c4)n3)cc2nn1Cc1ccccc1.Cl.Cl [GW787226] fall in?
Low

Which class does O=C(NOCC1CC1)c1ccc(F)c(F)c1Nc1ccc(I)cc1Cl fall in?
Low

Which class does CCc1ccnc(/C=C/c2n[nH]c3cc(Sc4ccccc4C(=O)NC)ccc23)c1 fall in?
Mid

Which class does C[C@@H](Oc1cc(-n2cnc3ccc(NC(=O)NC(C)(C)C)cc32)sc1C(N)=O)c1ccccc1Cl [GSK346294] fall in?
Mid

Which class does O=C(Nc1cccc(-c2nn3ncccc3c2-c2ccnc(Nc3cccc(C(F)(F)F)c3)n2)c1)c1c(F)cccc1F [GSK299495] fall in?
High

Which class does CC(C)Oc1ccc2c(-c3ccnc(Nc4ccc(N5CCN(C)CC5)cc4)n3)cnn2n1 [GW696155] fall in?
High

Which class does CN1c2ccc(NCc3ccc(F)cc3)cc2-c2c(cnn2C)S1(=O)=O fall in?
Low

Which class does O=C(c1ccc(-c2cc(-c3c[nH]nc3-c3ccccn3)ccn2)cc1)N1CCOCC1 [GW812171] fall in?
Mid

Which class does O=C1Cc2cc(Nc3nc(NCc4cccc(S(=O)(=O)C(F)(F)F)c4)ncc3C(F)(F)F)ccc2N1 fall in?
Mid

Which class does CN(C1=C(c2ccccc2)C(=O)NC1=O)c1ccccc1 [SB-334860] fall in?
Low

Which class does COc1cc(Nc2nccc(N3CCC(NC(=O)c4cccc(NC(C)=O)c4)C3)n2)cc(OC)c1OC (stereo not drawn) [GSK1379754] fall in?
High

Which class does Nc1nccc(-c2c(-c3ccc(F)cc3)ncn2C2CCN(CC(F)(F)F)CC2)n1 [SB-236560] fall in?
High

Which class does O=c1cc(N2CCOCC2)nc2n(Cc3cccc(F)c3)ccn12 [GSK2297430] fall in?
Low

Which class does O=c1cc(N2CCOCC2)nc2n(Cc3cccc4ccccc34)ccn12 [GSK2333389] fall in?
Mid

Which class does Cl.Oc1cccc(Nc2ccnc3cc(-c4ccncc4)ccc23)c1 [GW494601] fall in?
High

Which class does Cc1cccc(-c2nc(Nc3ccc4ncsc4c3)c3ccccc3n2)n1 [GW867588] fall in?
High

Which class does O=C(NCCNc1ccnc(Nc2ccc(F)cc2)n1)Nc1ccccc1F [GSK1379880] fall in?
Mid

Attribution: paper PMC5540273
